assay: Stability test (high temperature, high humidity and light tests); assay type: physicochemical; details: High humidity (90% RH), 25° C., 5 days

compound	Purity (%)
COC(=O)C1=C(CN2CCN3C(=O)N(c4ccc(CCC(=O)O)cc4F)C[C@@H]3C2)N=C(c2nccs2)N[C@H]1c1ccc(F)cc1Cl.O=S(=O)(O)O [Sulfate crystal form A of the compound having Formula (Ia)]	99.17
COC(=O)C1=C(CN2CCN3C(=O)N(c4ccc(CCC(=O)O)cc4F)C[C@@H]3C2)N=C(c2nccs2)N[C@H]1c1ccc(F)cc1Cl.O=P(O)(O)O [Phosphate crystal form A of the compound having Formula (Ia)]	99.04
Br.COC(=O)C1=C(CN2CCN3C(=O)N(c4ccc(CCC(=O)O)cc4F)C[C@@H]3C2)N=C(c2nccs2)N[C@H]1c1ccc(F)cc1Cl	98.82
COC(=O)C1=C(CN2CCN3C(=O)N(c4ccc(CCC(=O)O)cc4F)C[C@@H]3C2)N=C(c2nccs2)N[C@H]1c1ccc(F)cc1Cl.CS(=O)(=O)O	99.37
COC(=O)C1=C(CN2CCN3C(=O)N(c4ccc(CCC(=O)O)cc4F)C[C@@H]3C2)N=C(c2nccs2)N[C@H]1c1ccc(F)cc1Cl.O=P(O)(O)O [Phosphate crystal form C of the compound having Formula (Ia)]	99.29
COC(=O)C1=C(CN2CCN3C(=O)N(c4ccc(CCC(=O)O)cc4F)C[C@@H]3C2)N=C(c2nccs2)N[C@H]1c1ccc(F)cc1Cl.O=S(=O)(O)O [Sulfate crystal form B of the compound having Formula (Ia)]	98.90
CN(C)C=O.COC(=O)C1=C(CN2CCN3C(=O)N(c4ccc(CCC(=O)O)cc4F)C[C@@H]3C2)NC(c2nccs2)=N[C@H]1c1ccc(F)cc1Cl	98.87
COC(=O)C1=C(CN2CCN3C(=O)N(c4ccc(CCC(=O)O)cc4F)C[C@@H]3C2)NC(c2nccs2)=N[C@H]1c1ccc(F)cc1Cl	98.66
COC(=O)C1=C(CN2CCN3C(=O)N(c4ccc(CCC(=O)O)cc4F)C[C@@H]3C2)NC(c2nccs2)=N[C@H]1c1ccc(F)cc1Cl.N=C(N)NCCC[C@H](N)C(=O)O	99.38
COC(=O)C1=C(CN2CCN3C(=O)N(c4ccc(CCC(=O)O)cc4F)C[C@@H]3C2)N=C(c2nccs2)N[C@H]1c1ccc(F)cc1Cl.Cl	99.37

###

Measured Cmax, listed per entry for reference.
assay: Pharmacokinetic evaluation of experimental animals after oral administration; type: in vivo, Beagle dogs; settings: beagle dogs, oral via capsules, 10 mg/kg

molecule	Cmax / ng/mL
COC(=O)C1=C(CN2CCN3C(=O)N(c4ccc(CCC(=O)O)cc4F)C[C@@H]3C2)N=C(c2nccs2)N[C@H]1c1ccc(F)cc1Cl.O=P(O)(O)O [Phosphate crystal form A of the compound having Formula (Ia)]	2690
COC(=O)C1=C(CN2CCN3C(=O)N(c4ccc(CCC(=O)O)cc4F)C[C@@H]3C2)NC(c2nccs2)=N[C@H]1c1ccc(F)cc1Cl.N=C(N)NCCC[C@H](N)C(=O)O	6810
COC(=O)C1=C(CN2CCN3C(=O)N(c4ccc(CCC(=O)O)cc4F)C[C@@H]3C2)N=C(c2nccs2)N[C@H]1c1ccc(F)cc1Cl.Cl	4980
COC(=O)C1=C(CN2CCN3C(=O)N(c4ccc(CCC(=O)O)cc4F)C[C@@H]3C2)N=C(c2nccs2)N[C@H]1c1ccc(F)cc1Cl.O=S(=O)(O)O [Sulfate crystal form B of the compound having Formula (Ia)]	6620
COC(=O)C1=C(CN2CCN3C(=O)N(c4ccc(CCC(=O)O)cc4F)C[C@@H]3C2)N=C(c2nccs2)N[C@H]1c1ccc(F)cc1Cl.O=P(O)(O)O [Phosphate crystal form C of the compound having Formula (Ia)]	907
Br.COC(=O)C1=C(CN2CCN3C(=O)N(c4ccc(CCC(=O)O)cc4F)C[C@@H]3C2)N=C(c2nccs2)N[C@H]1c1ccc(F)cc1Cl	3340

###

Listing: Purity (%) of selected molecules
experiment: Stability test (high temperature, high humidity and light tests); assay type: physicochemical; conditions: 0 days

molecule	Purity (%)
COC(=O)C1=C(CN2CCN3C(=O)N(c4ccc(CCC(=O)O)cc4F)C[C@@H]3C2)N=C(c2nccs2)N[C@H]1c1ccc(F)cc1Cl.O=S(=O)(O)O [Sulfate crystal form B of the compound having Formula (Ia)]	98.98
COC(=O)C1=C(CN2CCN3C(=O)N(c4ccc(CCC(=O)O)cc4F)C[C@@H]3C2)N=C(c2nccs2)N[C@H]1c1ccc(F)cc1Cl.Cl	99.39
COC(=O)C1=C(CN2CCN3C(=O)N(c4ccc(CCC(=O)O)cc4F)C[C@@H]3C2)N=C(c2nccs2)N[C@H]1c1ccc(F)cc1Cl.O=P(O)(O)O [Phosphate crystal form A of the compound having Formula (Ia)]	99.13
COC(=O)C1=C(CN2CCN3C(=O)N(c4ccc(CCC(=O)O)cc4F)C[C@@H]3C2)N=C(c2nccs2)N[C@H]1c1ccc(F)cc1Cl.O=S(=O)(O)O [Sulfate crystal form A of the compound having Formula (Ia)]	99.14
COC(=O)C1=C(CN2CCN3C(=O)N(c4ccc(CCC(=O)O)cc4F)C[C@@H]3C2)NC(c2nccs2)=N[C@H]1c1ccc(F)cc1Cl.N=C(N)NCCC[C@H](N)C(=O)O	99.52
COC(=O)C1=C(CN2CCN3C(=O)N(c4ccc(CCC(=O)O)cc4F)C[C@@H]3C2)N=C(c2nccs2)N[C@H]1c1ccc(F)cc1Cl.O=P(O)(O)O [Phosphate crystal form C of the compound having Formula (Ia)]	99.34
COC(=O)C1=C(CN2CCN3C(=O)N(c4ccc(CCC(=O)O)cc4F)C[C@@H]3C2)NC(c2nccs2)=N[C@H]1c1ccc(F)cc1Cl	98.61
CN(C)C=O.COC(=O)C1=C(CN2CCN3C(=O)N(c4ccc(CCC(=O)O)cc4F)C[C@@H]3C2)NC(c2nccs2)=N[C@H]1c1ccc(F)cc1Cl	98.63
COC(=O)C1=C(CN2CCN3C(=O)N(c4ccc(CCC(=O)O)cc4F)C[C@@H]3C2)N=C(c2nccs2)N[C@H]1c1ccc(F)cc1Cl.CS(=O)(=O)O	99.40
Br.COC(=O)C1=C(CN2CCN3C(=O)N(c4ccc(CCC(=O)O)cc4F)C[C@@H]3C2)N=C(c2nccs2)N[C@H]1c1ccc(F)cc1Cl	98.41

###

experiment: Stability test (high temperature, high humidity and light tests); assay type: physicochemical; conditions: High temperature (60° C.), 5 days
experimental-readout: Purity (%)

> print(dat)
                                 cpd.smiles  unit.of.measurement  data.value
1  Br.COC(=O)C1=C(CN2CCN3C(=O)N(c4ccc(CCC(=O)O)cc4F)C[C@@H]3C2)N=C(c2nccs2)N[C@H]1c1ccc(F)cc1Cl                    %       98.43
2  COC(=O)C1=C(CN2CCN3C(=O)N(c4ccc(CCC(=O)O)cc4F)C[C@@H]3C2)N=C(c2nccs2)N[C@H]1c1ccc(F)cc1Cl.Cl                    %       99.36
3  COC(=O)C1=C(CN2CCN3C(=O)N(c4ccc(CCC(=O)O)cc4F)C[C@@H]3C2)NC(c2nccs2)=N[C@H]1c1ccc(F)cc1Cl.N=C(N)NCCC[C@H](N)C(=O)O                    %       99.46

###

experiment: Pharmacokinetic evaluation of experimental animals after oral administration; type: in vivo, Beagle dogs; conditions: beagle dogs, oral via capsules, 10 mg/kg
Each entry below carries its recorded AUC0-t.

molecule	AUC0-t
Br.COC(=O)C1=C(CN2CCN3C(=O)N(c4ccc(CCC(=O)O)cc4F)C[C@@H]3C2)N=C(c2nccs2)N[C@H]1c1ccc(F)cc1Cl	5690 ng·h/mL
COC(=O)C1=C(CN2CCN3C(=O)N(c4ccc(CCC(=O)O)cc4F)C[C@@H]3C2)N=C(c2nccs2)N[C@H]1c1ccc(F)cc1Cl.O=S(=O)(O)O [Sulfate crystal form B of the compound having Formula (Ia)]	10840 ng·h/mL
COC(=O)C1=C(CN2CCN3C(=O)N(c4ccc(CCC(=O)O)cc4F)C[C@@H]3C2)N=C(c2nccs2)N[C@H]1c1ccc(F)cc1Cl.Cl	8630 ng·h/mL
COC(=O)C1=C(CN2CCN3C(=O)N(c4ccc(CCC(=O)O)cc4F)C[C@@H]3C2)NC(c2nccs2)=N[C@H]1c1ccc(F)cc1Cl.N=C(N)NCCC[C@H](N)C(=O)O	13100 ng·h/mL
COC(=O)C1=C(CN2CCN3C(=O)N(c4ccc(CCC(=O)O)cc4F)C[C@@H]3C2)N=C(c2nccs2)N[C@H]1c1ccc(F)cc1Cl.O=P(O)(O)O [Phosphate crystal form A of the compound having Formula (Ia)]	4350 ng·h/mL
COC(=O)C1=C(CN2CCN3C(=O)N(c4ccc(CCC(=O)O)cc4F)C[C@@H]3C2)N=C(c2nccs2)N[C@H]1c1ccc(F)cc1Cl.O=P(O)(O)O [Phosphate crystal form C of the compound having Formula (Ia)]	1900 ng·h/mL
